Data origin, for the record: the RNAGym collection of RNA variant scans (doi:10.1093/molbev/msab373)

B1: Azoarcus group I ribozyme (parent)
chain: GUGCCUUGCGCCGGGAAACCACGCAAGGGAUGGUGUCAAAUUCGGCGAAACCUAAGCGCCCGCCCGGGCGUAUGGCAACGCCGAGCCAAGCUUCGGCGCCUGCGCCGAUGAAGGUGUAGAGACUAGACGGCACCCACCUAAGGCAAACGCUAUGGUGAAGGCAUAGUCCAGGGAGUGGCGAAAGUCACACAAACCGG

# Variants of: B1
# measurement_description: reverse-splicing fitness (ratio to wild type); higher = more active; in vitro selection; Mg2+ level not given
endpoint_label: reverse-splicing fitness
Keep the answer to the number alone.

For orientation, consider the following solved cases.
{"columns": ["mutation_spec", "reverse-splicing fitness"],
 "data": [
  ["C82U A111G A120G A145U C169A U176A", 0.0102],
  ["C82G A120G C150U C169A U176C", 0.0189]
]}

variant C82U A111U A120G A145C C150U , reverse-splicing fitness observed: 0.0086

get_value(item= A111G A120G A145C C150U U176C , readout=reverse-splicing fitness) returns 0.038

Reported reverse-splicing fitness ( A111C A120G A145G U176A ) = 0.0379
